System: HCV JFH1
ASSAY_COMMENT: HCV JFH1 infectivity assay (JFH1 Foci Reduction Assay)
Format: cell-based, hepatitis C virus
CONDITION_NOTES: virus preincubated with compound; Huh 7 cells; 48 hr post infection; RD8, RD16, RD17, RD18 as glucosidase hydrolysis products
Estimated IC50 (inhibition of HCV JFH1 infectivity) for assorted compounds
VALUE_TYPE: Estimated IC50 (inhibition of HCV JFH1 infectivity) (µg/mL)

COMPOUND: COC(=O)C1=COC(O)C2C1CC(O)C2C (mixture of isomers) [RD-8]
UNIT_OF_MEASURE: µg/mL
READING: 15

COMPOUND: COC(=O)C1=COC(O)C2C1C(O)C(O)C2(C)O (mixture of isomers) [lamiridosin]
UNIT_OF_MEASURE: µg/mL
READING: 20

COMPOUND: CC1C(O)CC2C(C(=O)O)=COC(O)C21 (mixture of isomers) [RD-17]
UNIT_OF_MEASURE: µg/mL
READING: 17

COMPOUND: COC(=O)C1=COC(O)C2C1C(O)CC2(C)O (mixture of isomers) [RD-16]
UNIT_OF_MEASURE: µg/mL
READING: 14

COMPOUND: O=C(C=Cc1ccc(O)cc1)OCC1=CC(O)C2C=COC(O)C12 (mixture of isomers) [RD-18]
UNIT_OF_MEASURE: µg/mL
READING: 26
